Biological target: FGFR3 (UniProt P22607)
Sequence (P22607 whole entry, looked up): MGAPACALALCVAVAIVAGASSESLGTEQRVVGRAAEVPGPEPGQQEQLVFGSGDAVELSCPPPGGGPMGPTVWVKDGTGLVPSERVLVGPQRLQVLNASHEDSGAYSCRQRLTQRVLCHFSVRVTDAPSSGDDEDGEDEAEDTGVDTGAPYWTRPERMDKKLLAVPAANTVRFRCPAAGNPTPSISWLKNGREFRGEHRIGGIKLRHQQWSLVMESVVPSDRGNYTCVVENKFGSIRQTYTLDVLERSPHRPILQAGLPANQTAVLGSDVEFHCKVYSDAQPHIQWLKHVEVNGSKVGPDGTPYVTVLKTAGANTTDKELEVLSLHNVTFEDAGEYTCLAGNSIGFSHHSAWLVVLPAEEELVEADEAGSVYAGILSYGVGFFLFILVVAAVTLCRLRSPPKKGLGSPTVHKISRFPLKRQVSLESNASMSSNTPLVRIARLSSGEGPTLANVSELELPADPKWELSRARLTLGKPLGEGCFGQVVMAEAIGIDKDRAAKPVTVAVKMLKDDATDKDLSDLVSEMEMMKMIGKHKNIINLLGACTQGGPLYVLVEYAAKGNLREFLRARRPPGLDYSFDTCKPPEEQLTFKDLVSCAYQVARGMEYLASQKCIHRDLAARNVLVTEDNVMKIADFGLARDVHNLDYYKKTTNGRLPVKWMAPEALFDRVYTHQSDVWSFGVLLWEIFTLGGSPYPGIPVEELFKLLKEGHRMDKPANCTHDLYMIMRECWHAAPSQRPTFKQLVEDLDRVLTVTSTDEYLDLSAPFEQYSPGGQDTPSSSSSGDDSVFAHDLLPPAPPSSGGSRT
Assay: phosphorylation enrichment, bacterial display (enrichment ratio); higher = better substrate or ligand; peptides without Tyr show the background
MEASURED_PROPERTY: phosphorylation enrichment
Respond with the number and no other words.

Recorded phosphorylation enrichment of ALWFIYLHTRS [ENG_Y614_S615L_YF] , please. 0.778

Another: IVAREYYSEAD [CAMK2A_Y106] 0.81

Others:
Quick check: phosphorylation enrichment of PPAPRYHHSAV [LZTR1_Y119] ? 0.79

----------
Tested on: c-Src
Test: phosphorylation enrichment, bacterial display (enrichment ratio); higher = better substrate or ligand; peptides without Tyr show the background
MEASURED_PROPERTY: phosphorylation enrichment

For the sequence DEEDFYQGSME [ASCC1_Y36] , what phosphorylation enrichment is on record? 0.603

Then what about the sequence PKGTGYIKTES [STAT1_Y701_L706S] ? 0.601

Ok, now TLQTMYGCDVG [HLA-B_Y123_S121T] 0.68

Field entry: IDSTPYGQWFE [RPS8_Y109_R110G_YF] 3.56

***
phosphorylation enrichment lookup needed for IKNSGYISQYL [EIF2AK3_Y585_R588Q] , thanks. 0.406

Now try DDEESYENVPR [FCRL3_Y722_N721S] . 0.462

And what about the sequence QLFGAYLRIHA [BSCL2_Y213_YF] ? 0.559

Let us now turn to GPKFGYDEIDN [ACOX1_Y232] 0.453

And what about the sequence GAALAYGLDKS [HSPA9_Y230_A225G] ? 0.415

Quick one: FPKARYRWLVL [APTX_Y214_H215R_YF] 0.436

----------
Target: c-Src SH2;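 note: peptide library displayed on the E. coli surface as eCPX fusions, selected cells deep-sequenced, score is each peptide's frequency after selection divided by its frequency in the input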
Assay: SH2 binding enrichment of the phosphorylated peptide, bacterial display (enrichment ratio); higher = better substrate or ligand; peptides without Tyr show the background
MEASURED_PROPERTY: SH2 binding enrichment
Answer with a bare number; do not write a unit.

c-Src SH2 / SH2 binding enrichment / GGCQEYTGAPF [NAXD_Y85_YF] : value? 0.508

Next sequence: FDAHIYEGRVI [PRKCD_Y64] 0.713

Now try KELAPYDENCF [RPS19_Y48_W52C] . 1.32

Likewise for PLDGEYFILQI [TP53_Y327_T329I] ? 0.521

One more sequence: TGSFTCEAVEL [MTMR14_Y462_Y462C] 0.576

Continuing:
Could you share what SH2 binding enrichment was measured for KNKELYSDPFD [PDE10A_Y300_L303P] , tested on c-Src SH2? 0.672

----------
Test system: c-Abl (mouse)
Experiment: phosphorylation enrichment, bacterial display (enrichment ratio); higher = better substrate or ligand; peptides without Tyr show the background
MEASURED_PROPERTY: phosphorylation enrichment
Please respond with just the number, no unit label.

These solved cases illustrate the format of a correct answer.
Form field - read-out: phosphorylation enrichment; system: c-Abl (mouse); submitted item: KTGDYYDLYGG [PTPN11_Y63_N58K] 0.813

Please do the same for KTVQDYLKKFF [MMP8_Y36_E38K_YF] as well. 0.66

Now consider ALAHKYLGGGG [HBB_Y146_H147L] and answer again. 0.289

And MAFDRYVAICS [OR8D4_Y123_C120Y_YF] ? 0.78

Same again, this time with SNKLYYQLEQE [PDPR_Y110] 1.11

---
# query: phosphorylation enrichment | item SSAAGYACLAY [MVD_Y131] | system: c-Abl (mouse) 0.897

Param item: QMVGKYASSYM [AVPR2_Y124_M123K] 0.786

What do we get for CTHDLYMIMRE [FGFR3_Y724] ? 0.848

Next entry: FASALYGQRRS [FGF11_Y162_R163G_YF] 0.47
